Listing of recorded Residual activity [%] by entry.
biological target: T1, VLP2 (virus-like particles of AAV2) (AAV2, UniProt P03135 1-735; P03135 1-598; P03135 1-533); assay: ELISA on VLP2; A450 after 66.1°C 15 min / untreated
T1 construct: Empty AAV2 capsid; background says about 60 protein molecules, VP1:VP2:VP3 = 1:1:10; Immobilised on the ELISA plate
T1 sequence (P03135 whole entry, chain 1 of 3): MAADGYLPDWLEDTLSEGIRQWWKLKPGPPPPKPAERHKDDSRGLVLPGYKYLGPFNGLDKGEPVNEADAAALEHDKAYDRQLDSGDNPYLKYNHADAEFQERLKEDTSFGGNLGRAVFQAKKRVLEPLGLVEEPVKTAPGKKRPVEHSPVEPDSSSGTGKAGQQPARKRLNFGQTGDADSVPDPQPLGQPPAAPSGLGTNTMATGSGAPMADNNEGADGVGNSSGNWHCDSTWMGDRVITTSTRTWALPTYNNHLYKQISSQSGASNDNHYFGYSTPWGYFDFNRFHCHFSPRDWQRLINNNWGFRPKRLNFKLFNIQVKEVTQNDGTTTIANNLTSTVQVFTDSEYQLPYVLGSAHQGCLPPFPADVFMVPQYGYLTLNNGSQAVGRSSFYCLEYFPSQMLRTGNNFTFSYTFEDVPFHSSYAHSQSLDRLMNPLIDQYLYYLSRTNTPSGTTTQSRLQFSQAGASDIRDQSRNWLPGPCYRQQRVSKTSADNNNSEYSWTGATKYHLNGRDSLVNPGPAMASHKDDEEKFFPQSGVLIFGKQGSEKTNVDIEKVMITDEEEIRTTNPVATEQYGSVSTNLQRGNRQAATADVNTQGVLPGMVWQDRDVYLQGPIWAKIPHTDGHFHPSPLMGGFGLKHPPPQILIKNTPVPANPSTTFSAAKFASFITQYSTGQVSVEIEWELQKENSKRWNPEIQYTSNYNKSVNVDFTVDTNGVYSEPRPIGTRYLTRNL
T1 sequence (P03135 139-735, tags left off, chain 2 of 3): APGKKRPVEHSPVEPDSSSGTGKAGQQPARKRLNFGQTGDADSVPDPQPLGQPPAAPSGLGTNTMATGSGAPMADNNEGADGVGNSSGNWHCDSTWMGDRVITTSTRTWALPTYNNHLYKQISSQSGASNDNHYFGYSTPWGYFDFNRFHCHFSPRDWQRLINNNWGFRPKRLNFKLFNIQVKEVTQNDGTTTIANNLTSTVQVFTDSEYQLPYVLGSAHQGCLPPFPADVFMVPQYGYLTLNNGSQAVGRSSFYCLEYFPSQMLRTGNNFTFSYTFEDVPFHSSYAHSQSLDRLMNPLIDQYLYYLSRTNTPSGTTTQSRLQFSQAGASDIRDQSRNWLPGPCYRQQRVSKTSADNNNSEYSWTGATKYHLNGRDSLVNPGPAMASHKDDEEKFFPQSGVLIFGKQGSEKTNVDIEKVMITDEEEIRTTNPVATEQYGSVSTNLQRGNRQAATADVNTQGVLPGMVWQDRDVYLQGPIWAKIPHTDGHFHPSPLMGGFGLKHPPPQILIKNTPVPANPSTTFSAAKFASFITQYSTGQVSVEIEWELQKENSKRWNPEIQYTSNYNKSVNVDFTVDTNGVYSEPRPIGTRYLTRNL
T1 sequence (P03135 203-735, chain 3 of 3): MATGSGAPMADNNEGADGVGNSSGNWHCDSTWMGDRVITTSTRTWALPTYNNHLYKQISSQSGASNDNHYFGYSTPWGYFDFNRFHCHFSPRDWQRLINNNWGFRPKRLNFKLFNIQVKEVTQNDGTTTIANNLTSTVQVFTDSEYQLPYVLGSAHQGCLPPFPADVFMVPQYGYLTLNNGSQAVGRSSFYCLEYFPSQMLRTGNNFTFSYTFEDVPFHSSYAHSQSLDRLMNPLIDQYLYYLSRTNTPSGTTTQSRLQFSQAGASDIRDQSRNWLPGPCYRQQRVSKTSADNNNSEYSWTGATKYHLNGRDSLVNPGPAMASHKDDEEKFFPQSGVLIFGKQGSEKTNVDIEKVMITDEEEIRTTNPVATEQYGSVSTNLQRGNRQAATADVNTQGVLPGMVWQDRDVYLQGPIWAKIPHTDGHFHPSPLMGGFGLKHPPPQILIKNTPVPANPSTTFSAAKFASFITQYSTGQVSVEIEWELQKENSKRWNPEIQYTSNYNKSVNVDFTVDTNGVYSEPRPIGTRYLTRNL
TEST READOUT: Residual activity [%]

{"BINDER": "AAV-binding protein No. 45 (Asn329Asp, Tyr342His, Tyr355Cys) (receptor) MGSAGESVQITLPKNEVQLDAYVLQEPPKGETHTYDWQLITHPRDCSGEMEGKHSQILKLSKLTPGLYEFKVIVEGQNAHGEGYVNVTVKPEPRKNRPPIAIVSPQFQEISLPTTSTVIDGSQSTDDDKIVQYHWEELKGPLREEKISEDTAILKLSKLVPGNYTFSLTVVDSDGATNSTTANLTVNKAVDHHHHHH", "VALUE MEASURED": "46.7%"}
{"BINDER": "AAV-binding protein No. 29 (Leu333Val, Tyr342Cys) (receptor) MGSAGESVQITLPKNEVQLNAYVVQEPPKGETCTYDWQLITHPRDYSGEMEGKHSQILKLSKLTPGLYEFKVIVEGQNAHGEGYVNVTVKPEPRKNRPPIAIVSPQFQEISLPTTSTVIDGSQSTDDDKIVQYHWEELKGPLREEKISEDTAILKLSKLVPGNYTFSLTVVDSDGATNSTTANLTVNKAVDHHHHHH", "VALUE MEASURED": "54.5%"}
{"BINDER": "AVR2 (AAV-binding protein No. 32, Tyr342Cys-Gly390Ser substitution product) (receptor) MGSAGESVQITLPKNEVQLNAYVLQEPPKGETCTYDWQLITHPRDYSGEMEGKHSQILKLSKLTPGLYEFKVIVEGQNAHSEGYVNVTVKPEPRKNRPPIAIVSPQFQEISLPTTSTVIDGSQSTDDDKIVQYHWEELKGPLREEKISEDTAILKLSKLVPGNYTFSLTVVDSDGATNSTTANLTVNKAVDHHHHHH", "VALUE MEASURED": "70.5%"}
